tested on: Klebsiella pneumoniae; assay: Antibacterial activity against KPC-2 producing multidrug-resistant Klebsiella pneumoniae clinical isolate 15-5 assessed as inhibition of bacterial growth incubated for 18 to 20 hrs by two fold serial dilution assay; format: functional; conditions: time 18-20 hrs
assay.endpoint: MIC (µg/mL)

INSERT INTO results (compound, target_or_test_system, assay_endpoint, numeric_result) VALUES
  ('CC(C)(C)C(O/N=C(\C(=O)N[C@@H]1C(=O)N2C(C(=O)O)=C(CS[C@H]3CC[C@@H](NC(=O)c4ccc(O)c(O)c4Cl)CC3)CS[C@H]12)c1csc(N)n1)C(=O)O.O=C(O)C(F)(F)F (stereo partly drawn)', 'Klebsiella pneumoniae', 'MIC', 1),
  ('CC(C)(O/N=C(\C(=O)N[C@@H]1C(=O)N2C(C(=O)O)=C(CS[C@@H]3C[C@H]4CC[C@@H](C3)N4C(=O)c3ccc(O)c(O)c3Cl)CS[C@H]12)c1csc(N)n1)C(=O)O.O=C(O)C(F)(F)F', 'Klebsiella pneumoniae', 'MIC', 1),
  ('Nc1nc(/C(=N/OC(C(=O)O)C2CC2)C(=O)N[C@@H]2C(=O)N3C(C(=O)O)=C(CSCCNC(=O)c4ccc(O)c(O)c4Cl)CS[C@H]23)cs1.O=C(O)C(F)(F)F (stereo partly drawn)', 'Klebsiella pneumoniae', 'MIC', 4),
  ('CC(C)(O/N=C(\C(=O)N[C@@H]1C(=O)N2C(C(=O)O)=C(CSCCCNC(=O)c3ccc(O)c(O)c3Cl)CS[C@H]12)c1csc(N)n1)C(=O)O.O=C(O)C(F)(F)F', 'Klebsiella pneumoniae', 'MIC', 4),
  ('Nc1nc(/C(=N/OC(C(=O)O)C2CCOCC2)C(=O)N[C@@H]2C(=O)N3C(C(=O)O)=C(CSCCNC(=O)c4ccc(O)c(O)c4Cl)CS[C@H]23)cs1.O=C(O)C(F)(F)F (stereo partly drawn)', 'Klebsiella pneumoniae', 'MIC', 16),
  ('Nc1nc(/C(=N/OC(C(=O)O)C2CCC(C(F)(F)F)CC2)C(=O)N[C@@H]2C(=O)N3C(C(=O)O)=C(CSCCNC(=O)c4ccc(O)c(O)c4Cl)CS[C@H]23)cs1.O=C(O)C(F)(F)F (stereo partly drawn)', 'Klebsiella pneumoniae', 'MIC', 1),
  ('Nc1nc(/C(=N/OC(C(=O)O)C2CCCCC2)C(=O)N[C@@H]2C(=O)N3C(C(=O)O)=C(CSCCNC(=O)c4ccc(O)c(O)c4Cl)CS[C@H]23)cs1.O=C(O)C(F)(F)F (stereo partly drawn)', 'Klebsiella pneumoniae', 'MIC', 1),
  ('Nc1nc(/C(=N/O[C@@H](C(=O)O)C2CCC(F)(F)CC2)C(=O)N[C@@H]2C(=O)N3C(C(=O)O)=C(CSCCNC(=O)c4ccc(O)c(O)c4Cl)CS[C@H]23)cs1.O=C(O)C(F)(F)F', 'Klebsiella pneumoniae', 'MIC', 0.5);

* * *

test system: Acinetobacter baumannii; test: Antibacterial activity against OXA-23 producing multidrug-resistant Acinetobacter baumannii clinical isolate 15-4 assessed as inhibition of bacterial growth incubated for 18 to 20 hrs by two fold serial dilution assay; assay type: functional; conditions: time 18-20 hrs
The following molecules are shown together with reported MIC values.
assay.endpoint: MIC (µg/mL)

INSERT INTO results (molecule, numeric_result) VALUES
  ('Nc1nc(/C(=N/OC(C(=O)O)C2CCCCC2)C(=O)N[C@@H]2C(=O)N3C(C(=O)O)=C(CSCCNC(=O)c4ccc(O)c(O)c4Cl)CS[C@H]23)c(Br)s1.O=C(O)C(F)(F)F (stereo partly drawn)', 2),
  ('CC(C)(O/N=C(\C(=O)N[C@@H]1C(=O)N2C(C(=O)[O-])=C(C[N+]3(CCNC(=O)c4ccc(O)c(O)c4Cl)CCCC3)CS[C@H]12)c1csc(N)n1)C(=O)O', 4),
  ('Nc1nc(/C(=N/OC(C(=O)O)C2CCC(F)(F)CC2)C(=O)N[C@@H]2C(=O)N3C(C(=O)O)=C(CSCCNC(=O)c4ccc(O)c(O)c4Cl)CS[C@H]23)cs1.O=C(O)C(F)(F)F (stereo partly drawn)', 4);

* * *

experiment: Half life in Sprague-Dawley rat at 5 mg/kg,iv administration measured upto 4 hrs by LC-MS/MS analysis; assay type: ADME, organism-based; conditions: in vivo
assay.endpoint: half-life (min)

INSERT INTO assay_data (smiles_repr, assay_endpoint, numeric_result) VALUES
  ('Nc1nc(/C(=N/O[C@@H](C(=O)[O-])C2CCC(F)(F)CC2)C(=O)N[C@@H]2C(=O)N3C(C(=O)O)=C(CSCCNC(=O)c4ccc(O)c(O)c4Cl)CS[C@H]23)cs1.[Na+]', 'half-life', 13.8);

* * *

tested on: Pseudomonas aeruginosa; assay: Antibacterial activity against IMP-4 producing multidrug-resistant Pseudomonas aeruginosa clinical isolate 15-4 assessed as inhibition of bacterial growth incubated for 18 to 20 hrs by two fold serial dilution assay; assay type: functional; details: time 18-20 hrs
The following compounds are shown together with reported MIC values.
assay.endpoint: MIC (µg/mL)

INSERT INTO results (compound, target_or_test_system, assay_endpoint, numeric_result) VALUES
  ('CC(C)(O/N=C(\C(=O)N[C@@H]1C(=O)N2C(C(=O)O)=C(CSCCNC(=O)c3ccc(O)c(O)c3Cl)CS[C@H]12)c1csc(N)n1)C(=O)O.O=C(O)C(F)(F)F', 'Pseudomonas aeruginosa', 'MIC', 4),
  ('CC(C)(O/N=C(\C(=O)N[C@@H]1C(=O)N2C(C(=O)[O-])=C(C[N+]3(CCNC(=O)c4ccc(O)c(O)c4Cl)CCCC3)CS[C@H]12)c1csc(N)n1)C(=O)O', 'Pseudomonas aeruginosa', 'MIC', 2),
  ('CC(C)(O/N=C(\C(=O)N[C@@H]1C(=O)N2C(C(=O)O)=C(CS[C@@H]3C[C@H]4CC[C@@H](C3)N4C(=O)c3ccc(O)c(O)c3Cl)CS[C@H]12)c1csc(N)n1)C(=O)O.O=C(O)C(F)(F)F', 'Pseudomonas aeruginosa', 'MIC', 16),
  ('Nc1nc(/C(=N/OC2(C(=O)O)CCC2)C(=O)N[C@@H]2C(=O)N3C(C(=O)O)=C(CSCCNC(=O)c4ccc(O)c(O)c4Cl)CS[C@H]23)cs1.O=C(O)C(F)(F)F', 'Pseudomonas aeruginosa', 'MIC', 1),
  ('CC(C)(O/N=C(\C(=O)N[C@@H]1C(=O)N2C(C(=O)O)=C(CSCCCNC(=O)c3ccc(O)c(O)c3Cl)CS[C@H]12)c1csc(N)n1)C(=O)O.O=C(O)C(F)(F)F', 'Pseudomonas aeruginosa', 'MIC', 2),
  ('CC(C)(O/N=C(\C(=O)N[C@@H]1C(=O)N2C(C(=O)O)=C(CSCCOCCNC(=O)c3ccc(O)c(O)c3Cl)CS[C@H]12)c1csc(N)n1)C(=O)O.O=C(O)C(F)(F)F', 'Pseudomonas aeruginosa', 'MIC', 1),
  ('CC(C)C(O/N=C(\C(=O)N[C@@H]1C(=O)N2C(C(=O)O)=C(CSCCNC(=O)c3ccc(O)c(O)c3Cl)CS[C@H]12)c1csc(N)n1)C(=O)O.O=C(O)C(F)(F)F (some centres not stated)', 'Pseudomonas aeruginosa', 'MIC', 4);

* * *

tested on: Klebsiella pneumoniae; assay: Antibacterial activity against KPC-2 producing multidrug-resistant Klebsiella pneumoniae clinical isolate 15-5 assessed as inhibition of bacterial growth incubated for 18 to 20 hrs by two fold serial dilution assay; assay type: functional; details: time 18-20 hrs
assay.endpoint: log10(MIC) (log10 of the value in mg/L)

INSERT INTO measurements (compound, target_or_test_system, numeric_result) VALUES
  ('Nc1nc(/C(=N/OC(C(=O)O)C2CCC2)C(=O)N[C@@H]2C(=O)N3C(C(=O)O)=C(CSCCNC(=O)c4ccc(O)c(O)c4Cl)CS[C@H]23)cs1.O=C(O)C(F)(F)F (stereo partly specified)', 'Klebsiella pneumoniae', 0.60),
  ('CC(C)(C)C(O/N=C(\C(=O)N[C@@H]1C(=O)N2C(C(=O)O)=C(CSCCNC(=O)c3ccc(O)c(O)c3Cl)CS[C@H]12)c1csc(N)n1)C(=O)O.O=C(O)C(F)(F)F (stereo partly specified)', 'Klebsiella pneumoniae', -0.30),
  ('CC(C)(O/N=C(\C(=O)N[C@@H]1C(=O)N2C(C(=O)[O-])=C(C[N+]3(CCNC(=O)c4ccc(O)c(O)c4Cl)CCCC3)CS[C@H]12)c1csc(N)n1)C(=O)O', 'Klebsiella pneumoniae', 0.90),
  ('Nc1nc(/C(=N/O[C@H](C(=O)O)C2CCC(F)(F)CC2)C(=O)N[C@@H]2C(=O)N3C(C(=O)O)=C(CSCCNC(=O)c4ccc(O)c(O)c4Cl)CS[C@H]23)cs1.O=C(O)C(F)(F)F', 'Klebsiella pneumoniae', 0.00),
  ('Nc1nc(/C(=N/OC(C(=O)O)C2CCCCC2)C(=O)N[C@@H]2C(=O)N3C(C(=O)O)=C(CSCCNC(=O)c4ccc(O)c(O)c4Cl)CS[C@H]23)c(Cl)s1.O=C(O)C(F)(F)F (stereo partly specified)', 'Klebsiella pneumoniae', 0.00),
  ('C[C@@](O/N=C(\C(=O)N[C@@H]1C(=O)N2C(C(=O)O)=C(CSCCNC(=O)c3ccc(O)c(O)c3Cl)CS[C@H]12)c1nc(N)sc1Cl)(C(=O)O)C(F)(F)F.O=C(O)C(F)(F)F', 'Klebsiella pneumoniae', -0.90),
  ('CC1CCC(C(O/N=C(\C(=O)N[C@@H]2C(=O)N3C(C(=O)O)=C(CSCCNC(=O)c4ccc(O)c(O)c4Cl)CS[C@H]23)c2csc(N)n2)C(=O)O)CC1.O=C(O)C(F)(F)F (stereo partly specified)', 'Klebsiella pneumoniae', -0.30),
  ('Nc1nc(/C(=N/OC(C(=O)O)C2CCS(=O)(=O)CC2)C(=O)N[C@@H]2C(=O)N3C(C(=O)O)=C(CSCCNC(=O)c4ccc(O)c(O)c4Cl)CS[C@H]23)cs1.O=C(O)C(F)(F)F (stereo partly specified)', 'Klebsiella pneumoniae', -0.30),
  ('C[C@@](O/N=C(\C(=O)N[C@@H]1C(=O)N2C(C(=O)O)=C(CSCCNC(=O)c3ccc(O)c(O)c3Cl)CS[C@H]12)c1csc(N)n1)(C(=O)O)C(F)(F)F.O=C(O)C(F)(F)F', 'Klebsiella pneumoniae', 0.00),
  ('CC(C)(O/N=C(\C(=O)N[C@@H]1C(=O)N2C(C(=O)O)=C(CSCCNC(=O)c3ccc(O)c(O)c3Cl)CS[C@H]12)c1csc(N)n1)C(=O)O.O=C(O)C(F)(F)F', 'Klebsiella pneumoniae', 0.30);
